Data origin: PubChem BioAssay AID1508600

PROCEDURE_SUMMARY: Components of the Cytosolic LPS Sensing Pathway: Gene Identification via Genome-wide siRNA Screen
ASSAY_CONTEXT: RAW264.7 macrophages, IL-1a HTRF, actives lie on both sides, screened at 100 nM (by protocol), cells primed 5 h with Pam3CSK4 first
Description: Non-canonical inflammasome activation by cytosolic LPS is a critical component of the host response to Gram-negative bacterial infection, however we lack a comprehensive understanding of the cellular processes that control this pathway. […] Lipofectamine RNAiMAX Transfection Reagent ([…]; Invitrogen) was added in […] serum-free, antibiotic-free media to plate wells using a Thermo Scientific Matrix WellMate and Microplate Stacker. […] The plates were read on an EnVision plate reader (PerkinElmer). […]
Hit rate of the full screen: of about 53,000 sequences, about 3,700 (7%) were called active. This excerpt belongs to a sample that is enriched for actives.
Mark yes for z-score under -1, no if at or over.

- CHAIN_SEQUENCE: "GGUGCUAAAAAUGAGCCUUTT against Urm1"
  CLASS_LABEL: "yes"
- CHAIN_SEQUENCE: "GGCCUAGGGAAAGCUAUGGTT against Nat8f3"
  CLASS_LABEL: "yes"
- CHAIN_SEQUENCE: "GGCAAUUCAAACAAUGCAGTT against Orm1"
  CLASS_LABEL: "yes"
- CHAIN_SEQUENCE: "CCUAGGGCUUUAGCUCUGATT against Msc"
  CLASS_LABEL: "no"

Input GGAACCAAGGAUGUGAAAGTT against Rab13 ; condition: z-score strictly below -1. Does it hold?
yes

Now the sequence GGUGAAGCAAAACGGAGGATT against H2-M10.1
no

Now the sequence GGAGAUGAACCAUUAUGUCTT against Mycbp
yes

---

Could you please report measured z-score for the items listed next?
PROCEDURE_SUMMARY: Components of the Cytosolic LPS Sensing Pathway: Gene Identification via Genome-wide siRNA Screen
ASSAY_CONTEXT: RAW264.7 macrophages, IL-1a HTRF, actives lie on both sides, screened at 100 nM (by protocol), cells primed 5 h with Pam3CSK4 first
The campaign covered roughly 53,000 sequences. About 3,700 (7%) were called active. This excerpt belongs to a sample that is enriched for actives.
Give bare numbers.

Examples with answers:
- CHAIN_SEQUENCE: "GGACUUCUUGGACCUACUUTT against F5"
  EXPERIMENTAL_RESULT: -1.55
- CHAIN_SEQUENCE: "GAAAUUCUUCCAGUGGAAGTT against Lrp2bp"
  EXPERIMENTAL_RESULT: 0.958

Please find the next sequence below.
Can you share its z-score? I mean this sequence: GGAACUGAAAUUCAGUUGGTT against Azin1
0.218

---

PROCEDURE_SUMMARY: Components of the Cytosolic LPS Sensing Pathway: Gene Identification via Genome-wide siRNA Screen
ASSAY_CONTEXT: RAW264.7 macrophages, IL-1a HTRF, actives lie on both sides, screened at 100 nM (by protocol), cells primed 5 h with Pam3CSK4 first
Among all 53,000 sequences or so, about 3,700 (7%) were called active. This is one part of a sample in which actives are shown more often than they occur.
Lab note: anything with z-score at or over 0.7 counts as condition met; the rest go in condition not met.

Has GGGCUUAUUCUCAGUUCUGTT against Slc17a1 a recorded z-score greater than or equal to 0.7?
condition not met

Now the sequence GAGGUCAUUAUACCAUUGGTT against Tuba3b
condition not met

Now the sequence GGUUCUGGUGGUGAAUGUGTT against Kcnd1
condition not met

Now the sequence CCUGGAGUUAGUUUGACAGTT against Atf4
condition not met

Now the sequence CCAAUGGCGAGACAACUACTT against Aldoa
condition not met

Now the sequence GCACCUAGUUAAUGCUGCCTT against C2cd2
condition not met

Now the sequence GGAAACACAAGUUCUAGGUTT against Gpx3
condition met

Now the sequence GGCAAGUCUUUAAAAGUCCTT against Xrcc2
condition not met

Now the sequence CGGCUGUGUGCAUUUAAAGTT against Bmpr2
condition not met

Now the sequence CCUAAAAUACUUUACCGGGTT against Bckdhb
condition not met

Now the sequence GGAAAAAUUCGAGGGACUGTT against Rcan2
condition met

Now the sequence GGCAUGAAGUUUGAAGCCATT against Cnnm2
condition not met

Now the sequence GAAUAUGUGGCUCUGGGUCTT against G6pc3
condition not met

Now the sequence CCACAUCCUGACUACUACATT against Sumo2
condition not met

Now the sequence CGUGCAAGCAGUGAUUUUGTT against Smpx
condition not met

Now the sequence GGAGCAUCUCUCCAGAUUGTT against Igsf9
condition not met

Now the sequence CCUUUAUGAAUGAACAGGGTT against Cnot7
condition not met

Now the sequence GGCUCAGGACUUUGUCUACTT against Lhx4
condition not met

Now the sequence GGGUGUGAAAGUCAAUAAATT against 4930591A17Rik
condition met

---

PROCEDURE_SUMMARY: Components of the Cytosolic LPS Sensing Pathway: Gene Identification via Genome-wide siRNA Screen;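 note: robust z of the log signal after scaling to non-targeting control siRNA wells of the plate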
ASSAY_CONTEXT: RAW264.7 macrophages, IL-1a HTRF, actives lie on both sides, screened at 100 nM (by protocol), cells primed 5 h with Pam3CSK4 first
About 3,700 (7%) of roughly 53,000 sequences were called active.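 The calls were made as follows: active = gene knockdowns whose robust z-score for IL-1 alpha signal is at least 2 or at most -2, so actives lie on both sides; inactive = the rest.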 The sample as a whole holds a higher share of actives than the screen did.
Respond only with the outcome that fits, drawn from active, inactive

- CHAIN_SEQUENCE: "GCCAGAAAAGUACCACCAGTT against Slc35f4"
  CLASS_LABEL: "inactive"

Recorded call for GGUGUUUGGCGAUAAUAAGTT against Zdhhc15 ?
inactive

Now the sequence CCUAAAUCCUGCUAGGCGUTT against Cbln1
inactive

Now the sequence GGUGAAAAUCAAGCUGAAUTT against Smarca2
inactive

Now the sequence GGGUGUAUUACCUCUCUCUTT against Pygl
active

Now the sequence GGCGUGAUAGCUGGACUUATT against Eola1
inactive

Now the sequence GGCUUUGAUUAUGUUCCCATT against Fcer2a
inactive

---

PROCEDURE_SUMMARY: Components of the Cytosolic LPS Sensing Pathway: Gene Identification via Genome-wide siRNA Screen;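 note: robust z of the log signal after scaling to non-targeting control siRNA wells of the plate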
ASSAY_CONTEXT: RAW264.7 macrophages, IL-1a HTRF, actives lie on both sides, screened at 100 nM (by protocol), cells primed 5 h with Pam3CSK4 first
Out of some 53,000 sequences screened, about 3,700 (7%) were called active.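 Rule for the calls: active = gene knockdowns whose robust z-score for IL-1 alpha signal is at least 2 or at most -2, so actives lie on both sides; inactive = the rest.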 The sample as a whole holds a higher share of actives than the screen did.
Respond only with the outcome that fits, drawn from active, inactive

Here's what some known entries look like.
- CHAIN_SEQUENCE: "GGAAGCAAUGUGAGAAAUUTT against Tmem91"
  CLASS_LABEL: "active"
- CHAIN_SEQUENCE: "GGCUUCGUAGCUUUACAAATT against Abca6"
  CLASS_LABEL: "inactive"
- CHAIN_SEQUENCE: "GGGAGUAGAGAUCAAAGGCTT against Cfb"
  CLASS_LABEL: "inactive"
- CHAIN_SEQUENCE: "GGAAUCUAGCUGAGAAAAUTT against Lepr"
  CLASS_LABEL: "inactive"

Recorded call for GGUAGAGAGACUGUAAUUATT against Ppp2r1b ?
inactive

---

Could you please report measured z-score for the items listed next?
PROCEDURE_SUMMARY: Components of the Cytosolic LPS Sensing Pathway: Gene Identification via Genome-wide siRNA Screen;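 note: robust z of the log signal after scaling to non-targeting control siRNA wells of the plate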
ASSAY_CONTEXT: RAW264.7 macrophages, IL-1a HTRF, actives lie on both sides, screened at 100 nM (by protocol), cells primed 5 h with Pam3CSK4 first
Screen size: about 53,000 sequences; about 3,700 (7%) were called active. The entries come from a sample that favours actives as a whole.
Give bare numbers.

Please go through the list and note z-score for each sequence.
1. CCCAACAUAUUUUUUAGCATT against Hmgcll1
2. GGUUUUAAGCUUGCUUAUGTT against Ucma
3. GGAUACUCGGGAUCUAGUATT against Anxa11
4. CCCAAAUAACAGAGAAAUGTT against St8sia6

1: -0.506; 2: 0.4; 3: -1.44; 4: 0.818

---

PROCEDURE_SUMMARY: Components of the Cytosolic LPS Sensing Pathway: Gene Identification via Genome-wide siRNA Screen;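 note: robust z of the log signal after scaling to non-targeting control siRNA wells of the plate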
ASSAY_CONTEXT: RAW264.7 macrophages, IL-1a HTRF, actives lie on both sides, screened at 100 nM (by protocol), cells primed 5 h with Pam3CSK4 first
Screen size: about 53,000 sequences; about 3,700 (7%) were called active. This is one part of a sample in which actives are shown more often than they occur.
Could you please report measured z-score for the items listed next?
Answers are plain numbers.

Examples with answers:
- CHAIN_SEQUENCE: "GGUUAGUAUGUAGCUCCCATT against Olfr982"
  EXPERIMENTAL_READOUT: "z-score"
  EXPERIMENTAL_RESULT: -0.401
- CHAIN_SEQUENCE: "GGGAUGACUUGGAGUCUCUTT against Csnk1d"
  EXPERIMENTAL_READOUT: "z-score"
  EXPERIMENTAL_RESULT: -0.0473
- CHAIN_SEQUENCE: "GGCGGAAAUCUUGAGCAAATT against Slc28a2"
  EXPERIMENTAL_READOUT: "z-score"
  EXPERIMENTAL_RESULT: 4.39
- CHAIN_SEQUENCE: "GCCUUAUGGUUUUGUAUUUTT against Nap1l1"
  EXPERIMENTAL_READOUT: "z-score"
  EXPERIMENTAL_RESULT: -2.38
- CHAIN_SEQUENCE: "GCAAAUGUUGCCCAUCGUGTT against Ppp2r1b"
  EXPERIMENTAL_READOUT: "z-score"
  EXPERIMENTAL_RESULT: 0.44

Please go through the list and note z-score for each sequence.
1. CGCUCAUUUAGACAUAGAGTT against Ass1
2. GCAGGAGGAUUAGUAAAUUTT against Ier2
3. GCAGACAGCUUCUCACUAUTT against Tmem114
4. GGCUUCAAAGGCAAAGUUCTT against Fbf1
5. GGCAAAUUAUUAGUACAGUTT against Gabpa
6. CCAUCUGAUUAAUGGCUUCTT against Tm7sf2

0.686
0.966
-0.431
-1.5
1.41
1.03
